measured-on: PARP7 (Homo sapiens, UniProt Q7Z3E1)
Sequence (Q7Z3E1 whole entry): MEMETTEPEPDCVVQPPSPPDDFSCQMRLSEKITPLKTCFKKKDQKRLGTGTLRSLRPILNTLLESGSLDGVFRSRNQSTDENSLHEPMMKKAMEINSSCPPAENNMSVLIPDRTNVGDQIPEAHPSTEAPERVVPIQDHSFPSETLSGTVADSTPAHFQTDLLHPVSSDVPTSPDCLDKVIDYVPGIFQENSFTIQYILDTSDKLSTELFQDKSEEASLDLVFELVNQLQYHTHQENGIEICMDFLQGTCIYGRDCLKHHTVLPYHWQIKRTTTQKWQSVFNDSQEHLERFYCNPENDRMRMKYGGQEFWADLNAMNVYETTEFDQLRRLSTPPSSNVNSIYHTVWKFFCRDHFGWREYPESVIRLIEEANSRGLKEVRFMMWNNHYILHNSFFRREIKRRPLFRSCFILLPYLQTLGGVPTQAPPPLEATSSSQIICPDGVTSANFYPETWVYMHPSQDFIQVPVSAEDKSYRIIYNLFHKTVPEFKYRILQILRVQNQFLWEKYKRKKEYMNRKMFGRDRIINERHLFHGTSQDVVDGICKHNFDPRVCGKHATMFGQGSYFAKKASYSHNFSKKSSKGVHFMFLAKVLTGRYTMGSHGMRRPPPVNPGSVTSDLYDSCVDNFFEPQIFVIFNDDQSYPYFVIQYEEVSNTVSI
assay-comment: Probe Displacement Assay for PARP7 (MSD electrochemiluminescent, biotinylated probe RBNO11147)
experimental-conditions: displacement of biotinylated probe RBNO11147 from PARP7 NAD+-binding site; read-out: MSD ProbeDisp PARP7 IC50
measured-parameter: pIC50
Answers are plain numbers, as −log10 of the molar value.

# count of solved cases: 2
O=c1[nH]ncc(N2C[C@H]3C[C@H]3[C@H]2CCCn2ccc3nc(-c4ccc(C(F)(F)F)cn4)ccc3c2=O)c1C(F)(F)F [Example 47] : 8.90
COc1cnc(-c2cc3ccn(CCC[C@H](C)Nc4cn[nH]c(=O)c4C(F)(F)F)c(=O)c3cc2F)nc1 [Example 22] : 9.40

Return reported pIC50 values for all items listed beneath this line.
1. C[C@@H](CCCn1ccc2cc(-c3ccc(C(F)(F)F)cn3)c(F)cc2c1=O)Nc1cn[nH]c(=O)c1C(F)(F)F [Example 9]
2. C[C@@H](CCCn1ccc2cc(-c3ncc(F)cn3)c(F)c(F)c2c1=O)Nc1cn[nH]c(=O)c1C(F)(F)F [Example 54]

1. 9.40
2. 9.16
